# assay-system: pooled human IgG
Answer each item with its documented Enzyme Activity Endpoint Assay (purified): Fc.
Answer in ng/µL, number only, no unit symbol.

Task: Requested read-out: Enzyme Activity Endpoint Assay (purified): Fc. Entry: PRT-640 (protein) MQITSVWTKGVTPLTPEQFRYNNEDVIHAPYLAHQGWYDITKTFNGKDNLLCGAATAGNMLHWWFDQNKTEIEAYLSKHPEKQKIIFNNQELFDLKAAIDTKDSQTNSQLFNYFRDKAFPNLSARQLGVMPDLVLDMFINGYYLNVFKTQSTDVNRPYQDKDKRGGIFDAVFTRGDQTTLLTARHDLKNKGLNDISTIIKQELTEGRALALSHTYANVSISHVINLWGADFNAEGNLEAIYVTDSDADEKIGMKKYFVGINAHGHVAISAKKIEGENIGAQVLGLFTLSSGKDIWQKLSLEHHHHHH
Output: 507

Task: Requested read-out: Enzyme Activity Endpoint Assay (purified): Fc. Entry: PRT-639 (protein) MQITSVWTKGVTPLTPEQFRYNNEDVIHAPYLAHQGWYDITKTFNGKDDLLCGAATAGNMLHWWFDQNKTEIEAYLSKHPEKQKIIFNNQELFDLKAAIDTKDSQTNSQLFNYFRDKAFPNLSARQLGVMPDLVLDMFINGYYLNVFKTQSTDVNRPYQDKDKRGGIFDAVFTRGDQTTLLTARHDLKNKGLNDISTIIKQELTEGRALALSHTYANVSISHVINLWGADFNAEGNLEAIYVTDSDADASIGMKKYFVGINAHGHVAISAKKIEGENIGAQVLGLFTLSSGKDIWQKLSLEHHHHHH
Output: 450

Task: Requested read-out: Enzyme Activity Endpoint Assay (purified): Fc. Entry: PRT-136 (protein) MRNATEAYAKEVPHQITSVWTKGVTPLTPEQFRYNNEDVIHAPYLAHQGWYDITKAFDGKDNLLCGAATAGNMLHWWFDQNKTEIEAYLSKHPEKQKIIFNNQELFDLKAAIDTKDSQTNSQLFNYFRDKAFPNLSARQLGVMPDLVLDMFINGYYLNVFKTQSTDVNRPYQDKDKRGGIFDAVFTRGDQTTLLTARHDLKNKGLNDISTIIKQELTEGRALALSHTYANVSISHVINLWGADFNAEGNLEAIYVTDSDANASIGMKKYFVGVNAHGHVAISAKKIEGENIGAQVLGLFTLSSGKDIWQKLS
Output: 160

Task: Requested read-out: Enzyme Activity Endpoint Assay (purified): Fc. Entry: PRT-249 (protein) MVTSVWTKGVTPPTNFTYGEDVLHAPYVANQGWYDITKTFNGKDDLLCGAATAGNMLHWWFDQNKEQIENYLKKHPEKQKINFNGEQMFDVKEAIDTKDSQLDSKLFDYFKEKAFPNLSTKHLGVFPDHVIDMFINGYRLSLLNHGPTPVKRGSKDPRGGIFDAVFTRGDQSKLLTNRHDFKEKTLKEISDLIKQELTEGKALGISHTYANVRINHVINLWGADFDAEGNLEAIYVTDSDSNPSIGMKKYFVGVNSSGKVAISAKEIEEDNIGAQVLGLFTLSTGQDIWNQTN
Output: 457
